Origin of the recorded values: the supplement of paper PMC9112550

Test system: Escherichia coli TOP10;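 also: peptides expressed intracellularly from a pBAD plasmid library in pooled LB shake-flask culture, induced with 0.3% L-arabinose, DNA abundance read by NGS, three biological replicates, DESeq2 with apeglm shrinkage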
method-description: shrunken log2 fold change of peptide-encoding DNA abundance (4.5 h post-induction vs induction); higher = less antimicrobial activity (less host growth inhibition)
reported-conditions: time post-induction: 4.5 h; library: site-saturation at positions 5, 18, 19, 20
measured-quantity: shrunken log2 fold change

> print(dat)
            input.sequence           target.system          measured.quantity  test.result
1  RRIRTRPPRLPRPRPRPHQCPRP  Escherichia coli TOP10  shrunken log2 fold change        0.021
2  RRIRCRPPRLPRPRPRPMNTPRP  Escherichia coli TOP10  shrunken log2 fold change       -0.727
3  RRIRARPPRLPRPRPRPMKPPRP  Escherichia coli TOP10  shrunken log2 fold change        0.101
4  RRIRGRPPRLPRPRPRPNAGPRP  Escherichia coli TOP10  shrunken log2 fold change        0.552
5  RRIRHRPPRLPRPRPRPRIKPRP  Escherichia coli TOP10  shrunken log2 fold change      -0.0701
6  RRIRMRPPRLPRPRPRPWLFPRP  Escherichia coli TOP10  shrunken log2 fold change        0.457
7  RRIRHRPPRLPRPRPRPVKGPRP  Escherichia coli TOP10  shrunken log2 fold change       -0.079
8  RRIRWRPPRLPRPRPRPQVSPRP  Escherichia coli TOP10  shrunken log2 fold change      -0.0705
